B1: Intersectin-1, residues 1156 to 1213; numbered along this chain, Q15811 (parent)
chain: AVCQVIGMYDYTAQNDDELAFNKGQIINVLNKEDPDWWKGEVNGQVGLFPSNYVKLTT

Variants of: B1
Test: abundance fitness (aPCA) (normalised: wild type 0, dead -1); higher = more abundant; growth selection in yeast, the domain comes from the species named
Details: Homo sapiens
Hi, to clarify the labels: True covers abundance fitness from -0.7 upward, False covers anything below -0.7.

{"columns": ["mutation", "discrete-label"],
 "data": [
  ["K23D", "False"],
  ["Y11R", "True"],
  ["W38Y", "False"],
  ["D17T", "True"],
  ["V29G", "False"],
  ["G47E", "False"],
  ["N52C", "True"],
  ["E33N", "True"],
  ["D34P", "True"],
  ["I6C", "True"],
  ["I26A", "True"],
  ["T57Q", "True"],
  ["F49P", "False"],
  ["G24V", "False"],
  ["S51Y", "False"],
  ["E18H", "True"],
  ["Q45F", "True"],
  ["I27P", "True"],
  ["G40E", "False"],
  ["D16M", "True"],
  ["E41F", "False"],
  ["V46S", "True"],
  ["I6N", "False"],
  ["N22V", "True"],
  ["D34N", "True"],
  ["N15W", "True"],
  ["W38R", "False"],
  ["S51I", "False"],
  ["D17N", "True"],
  ["V5S", "False"],
  ["Y9R", "True"],
  ["E41N", "False"],
  ["L30F", "True"],
  ["W37Q", "True"],
  ["L19W", "False"],
  ["V2S", "True"],
  ["L19A", "False"],
  ["F49G", "False"],
  ["D34S", "True"],
  ["V54Y", "False"],
  ["N43V", "False"],
  ["D17P", "True"],
  ["Q45E", "True"],
  ["N15L", "True"],
  ["D34R", "True"],
  ["P50F", "True"],
  ["D10L", "False"],
  ["D36Q", "True"],
  ["K55N", "True"],
  ["G24T", "True"],
  ["W38L", "False"],
  ["W38G", "False"],
  ["K55I", "True"],
  ["G44Q", "True"],
  ["L30A", "False"],
  ["L48I", "True"],
  ["G24E", "False"],
  ["T57Y", "True"],
  ["L56N", "True"],
  ["A20S", "True"],
  ["S51P", "True"],
  ["N31G", "True"],
  ["F21T", "False"],
  ["C3W", "True"],
  ["M8P", "False"],
  ["G44T", "False"],
  ["A1D", "True"],
  ["V2T", "True"],
  ["L30N", "True"],
  ["G40K", "False"],
  ["A1V", "True"],
  ["K55Q", "True"],
  ["I26H", "True"],
  ["T57H", "True"],
  ["A13M", "False"],
  ["I27S", "False"],
  ["M8Y", "True"],
  ["G24N", "True"],
  ["V5R", "False"],
  ["V54N", "False"],
  ["L30Q", "True"],
  ["D16S", "True"],
  ["C3P", "False"],
  ["Q45H", "True"],
  ["K32D", "True"],
  ["G7A", "True"],
  ["L56G", "True"]
]}
